- Tested On: Pol theta (1-899) (Homo sapiens, UniProt O75417)
- Construct: Pol theta (1-899) (5 nM) in assay buffer
- Sequence (O75417 1-899): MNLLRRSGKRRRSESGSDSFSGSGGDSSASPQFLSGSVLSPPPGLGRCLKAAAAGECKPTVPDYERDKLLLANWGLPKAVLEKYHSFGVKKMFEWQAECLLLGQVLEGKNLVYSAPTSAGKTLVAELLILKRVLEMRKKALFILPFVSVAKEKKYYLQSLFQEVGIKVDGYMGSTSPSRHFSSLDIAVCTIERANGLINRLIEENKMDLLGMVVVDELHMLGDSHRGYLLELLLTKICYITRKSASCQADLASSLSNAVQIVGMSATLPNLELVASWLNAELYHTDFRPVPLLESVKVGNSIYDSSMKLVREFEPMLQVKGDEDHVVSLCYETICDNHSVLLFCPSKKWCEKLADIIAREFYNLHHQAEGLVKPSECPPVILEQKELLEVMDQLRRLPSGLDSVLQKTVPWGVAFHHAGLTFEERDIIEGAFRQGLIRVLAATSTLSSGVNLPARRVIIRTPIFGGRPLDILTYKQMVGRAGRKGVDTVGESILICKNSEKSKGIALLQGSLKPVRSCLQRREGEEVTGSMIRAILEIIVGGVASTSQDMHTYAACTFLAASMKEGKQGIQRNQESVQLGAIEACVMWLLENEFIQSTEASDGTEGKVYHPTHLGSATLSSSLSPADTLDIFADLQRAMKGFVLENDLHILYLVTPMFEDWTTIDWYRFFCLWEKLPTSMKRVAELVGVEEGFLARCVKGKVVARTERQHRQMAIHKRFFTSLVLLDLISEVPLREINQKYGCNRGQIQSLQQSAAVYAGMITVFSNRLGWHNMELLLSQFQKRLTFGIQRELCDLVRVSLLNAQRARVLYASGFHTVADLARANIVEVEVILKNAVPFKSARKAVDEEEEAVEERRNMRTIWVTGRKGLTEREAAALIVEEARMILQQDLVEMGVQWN
- Assay Remarks: Pol theta ATPase activity, NADH oxidation-coupled enzymatic assay (ATPase NADH coupling: Standard Screening: hPolQ)
- Format: biochemical
- Test Settings: Pol theta (1-899) 5 nM, NADH oxidation-coupled ATPase assay; compounds of Table 3
Value Kind: IC50

>>> print(df.to_string())
                                   compound  value_kind  endpoint_result
0  COc1cnc(C)c(F)c1-c1cc(C)ncc1C(=O)Nc1nnc(O[C@@H]2CO[C@H]3OCC[C@H]32)s1 (single isomer, unassigned)        IC50         ≤ 0.2 µM
1    COc1nnc(NC(=O)c2cnc(C)cc2-c2cccnc2C)s1        IC50       1 to 10 µM
2  COc1cnc(C)c(F)c1-c1cc(C)ncc1C(=O)Nc1nnc(O[C@H]2CCC[C@@H](O)C2)s1 (single isomer, unassigned)        IC50         ≤ 0.2 µM
3  COc1cnc(Cl)cc1-c1cc(C)ncc1C(=O)Nc1nnc(O[C@@H]2C[C@H](F)CN(C)C2)s1        IC50         ≤ 0.2 µM
4  COc1nnc(NC(=O)c2cnc(C)cc2-c2ccc(OC)c(C#N)c2)s1        IC50       1 to 10 µM
5  COc1nnc(NC(=O)c2cc(C#N)ncc2-c2cc(Cl)ncc2OC)s1        IC50    0.2 to 0.5 µM
6      COc1nnc(NC(=O)c2cnc(C)cc2-c2ccoc2)s1        IC50       1 to 10 µM
7  COc1nnc(NC(=O)c2cnc(C)cc2-c2ccc(C(C)(C)C)cc2)s1        IC50       1 to 10 µM
8  COc1nnc(NC(=O)c2cnc(C)cc2-c2cccc(N3CCOCC3)c2)s1        IC50       1 to 10 µM
9  COc1nnc(NC(=O)c2cnc(C)cc2-c2cccc(N(C)C)c2)s1        IC50       1 to 10 µM

* * *

- Tested On: Pol theta (1-899) (Homo sapiens, UniProt O75417)
- Construct: Pol theta (1-899) (5 nM) in assay buffer
- Assay Remarks: Pol theta ATPase activity, NADH oxidation-coupled enzymatic assay (ATPase NADH coupling: Standard Screening: hPolQ)
- Format: biochemical
- Test Settings: Pol theta (1-899) 5 nM, NADH oxidation-coupled ATPase assay; compounds of Table 3
pIC50: −log10 of the molar value.
Documented pIC50 across a set of molecules
Value Kind: pIC50

>>> df
                                    molecule                                 tested_on  endpoint_result
 0  COc1nnc(NC(=O)c2cnc(C)cc2-c2cccc(CC(N)=O)c2)s1  Pol theta (1-899) (Homo sapiens, UniProt O75417)     5.00 to 6.00
 1  COc1cnc(C)c(F)c1-c1cc(C)ncc1C(=O)Nc1nnc(O[C@H]2CC[C@@H](CO)CC2)s1  Pol theta (1-899) (Homo sapiens, UniProt O75417)           ≥ 6.70
 2  COc1ccc(OC)c(-c2cc(C)ncc2C(=O)Nc2nnc(OC)s2)c1  Pol theta (1-899) (Homo sapiens, UniProt O75417)     6.00 to 6.30
 3  COc1nnc(NC(=O)c2cnc(C)cc2-c2cccc3sccc23)s1  Pol theta (1-899) (Homo sapiens, UniProt O75417)     6.30 to 6.70
 4  COc1nnc(NC(=O)c2cnc(C)cc2-c2ccc(C(F)(F)F)cc2)s1  Pol theta (1-899) (Homo sapiens, UniProt O75417)     5.00 to 6.00
 5  COc1nnc(NC(=O)c2cnc(C)cc2-c2cc(C3CC3)nn2C2CCCCO2)s1 (stereo not shown)  Pol theta (1-899) (Homo sapiens, UniProt O75417)     5.00 to 6.00
 6  CNC(=O)c1cccc(-c2cc(C)ncc2C(=O)Nc2nnc(OC)s2)c1  Pol theta (1-899) (Homo sapiens, UniProt O75417)     5.00 to 6.00
 7  COc1cnc(Cl)cc1-c1cc(C)ncc1C(=O)Nc1nnc(O[C@H]2CN3CCC2CC3)s1  Pol theta (1-899) (Homo sapiens, UniProt O75417)     5.00 to 6.00
 8  CC[S@@+]([O-])c1cc(OC)c(-c2cc(C)ncc2C(=O)Nc2nnc(OC)s2)cc1Cl (single isomer, unassigned)  Pol theta (1-899) (Homo sapiens, UniProt O75417)           ≥ 6.70
 9  COc1nnc(NC(=O)c2cnc(C)cc2-c2ccc(C)cc2C)s1  Pol theta (1-899) (Homo sapiens, UniProt O75417)     6.00 to 6.30
10  Cc1cc(-c2cc(Cl)ncc2OC(F)F)c(C(=O)Nc2nnc(O[C@H]3CCC[C@@H](O)C3)s2)cn1 (single isomer, unassigned)  Pol theta (1-899) (Homo sapiens, UniProt O75417)           ≥ 6.70
11  CCc1cccc(-c2cc(C)ncc2C(=O)Nc2nnc(OC)s2)c1  Pol theta (1-899) (Homo sapiens, UniProt O75417)     6.00 to 6.30
12  COc1nnc(NC(=O)c2ccc(N)cc2-c2cc(Cl)ncc2OC)s1  Pol theta (1-899) (Homo sapiens, UniProt O75417)           ≥ 6.70
13  COc1cnc(Cl)cc1-c1cc(C)ncc1C(=O)Nc1nnc(OCCN(C)CC(F)(F)F)s1  Pol theta (1-899) (Homo sapiens, UniProt O75417)           ≥ 6.70
14  COc1nnc(NC(=O)c2cnc(C)cc2-c2ccc(NS(C)(=O)=O)cc2)s1  Pol theta (1-899) (Homo sapiens, UniProt O75417)     5.00 to 6.00
15  COc1nnc(NC(=O)c2cnc(C)cc2-c2cc(C)nn2C)s1  Pol theta (1-899) (Homo sapiens, UniProt O75417)     5.00 to 6.00
16  CNS(=O)(=O)c1ccc(-c2cc(C)ncc2C(=O)Nc2nnc(OC)s2)cc1  Pol theta (1-899) (Homo sapiens, UniProt O75417)     5.00 to 6.00
17  COc1nnc(NC(=O)c2cnc(C)cc2-c2cnc(N(C)C)nc2)s1  Pol theta (1-899) (Homo sapiens, UniProt O75417)     5.00 to 6.00
18  COc1cnc(Cl)cc1-c1cc(C)ncc1C(=O)Nc1nnc(O[C@H]2CCCN(C3CCOC3)C2)s1 (stereo in doubt)  Pol theta (1-899) (Homo sapiens, UniProt O75417)           ≥ 6.70
19  COc1nnc(NC(=O)c2cnc(C)cc2-c2cnnc(C)c2)s1  Pol theta (1-899) (Homo sapiens, UniProt O75417)     5.00 to 6.00
20  COc1ccc(-c2cc(C)ncc2C(=O)Nc2nnc(OC)s2)c(OC)c1  Pol theta (1-899) (Homo sapiens, UniProt O75417)     6.30 to 6.70
21  COc1nnc(NC(=O)c2cnc(C)cc2-c2cncc(C#N)c2)s1  Pol theta (1-899) (Homo sapiens, UniProt O75417)     5.00 to 6.00

* * *

- Tested On: Pol theta (1-899) (Homo sapiens)
- Construct: Pol theta (1-899) (5 nM) in assay buffer
- Assay Remarks: Pol theta ATPase activity, NADH oxidation-coupled enzymatic assay (ATPase NADH coupling: Standard Screening: hPolQ)
- Assay type: biochemical
- Test Settings: Table 5; Pol theta (1-899) 5 nM, ATP, dT50 ssDNA
Documented IC50 across a set of molecules
Value Kind: IC50

>>> print(df.to_string())
                                    molecule  endpoint_result
 0  COc1cnc(Cl)cc1-c1cc(C)ncc1C(=O)Nc1nnc(O[C@H]2CC[C@@H]2O)s1 (single isomer, unassigned)         ≤ 0.2 µM
 1  COc1cnc(C)c(F)c1-c1cc(C)ncc1C(=O)Nc1nnc(O[C@H]2CC[C@H](O)CC2)s1         ≤ 0.2 µM
 2  COc1cnc(Cl)c(F)c1-c1cc(C)ncc1C(=O)Nc1nnc(O[C@H]2COC3(CC3)C2)s1 (single isomer, unassigned)         ≤ 0.2 µM
 3  COc1cnc(Cl)c(F)c1-c1cc(C)ncc1C(=O)Nc1nnc(O[C@H]2CCC[C@@H](O)C2)s1 (single isomer, unassigned)         ≤ 0.2 µM
 4  COc1cnc(Cl)cc1-c1cc(C)ncc1C(=O)Nc1nnc(O[C@H]2CCO[C@@H]2C)s1 (single isomer, unassigned) [Example 115]         ≤ 0.2 µM
 5  COc1nnc(NC(=O)c2cnc(COC3CC3)cc2-c2cc(Cl)ncc2OC)s1         ≤ 0.2 µM
 6  Cc1cc(-c2cc(Cl)ncc2OC(F)F)c(C(=O)Nc2nnc(O[C@H]3COC4(CC4)C3)s2)cn1 (single isomer, unassigned)         ≤ 0.2 µM
 7  COc1nnc(NC(=O)c2c[nH]nc2-c2cc(Cl)ncc2OC)s1       1 to 10 µM
 8  COc1cnc(Br)cc1-c1cc(C)ncc1C(=O)Nc1nnc(O[C@H]2CC[C@@](C)(O)CC2)s1 (single isomer, unassigned)         ≤ 0.2 µM
 9  COc1cnc(Cl)cc1-c1cc(C)ncc1C(=O)Nc1nnc(OC2CCC3(CCCO3)CC2)s1 (single isomer, unassigned) [Example 173]         ≤ 0.2 µM
10  COc1cnc(Cl)c(F)c1-c1cc(C)ncc1C(=O)Nc1nnc(O[C@H]2C[C@@H](O)C2)s1         ≤ 0.2 µM
11  COc1nnc(NC(=O)c2cnc(C)cc2-c2cccn3nnnc23)s1       1 to 10 µM
12  COc1cnc(Cl)cc1-c1cc(C)ncc1C(=O)Nc1nnc(O[C@H]2CC[C@@H]([C@@H](C)O)CC2)s1 (single isomer, unassigned)         ≤ 0.2 µM
13  COc1nnc(NC(=O)c2cnc(C3CCCC3)cc2-c2cc(Cl)ncc2OC)s1    0.2 to 0.5 µM
14  COc1cnc(Cl)c(F)c1-c1cc(C)ncc1C(=O)Nc1nnc(O[C@H]2CCO[C@@H]2C)s1 (single isomer, unassigned)         ≤ 0.2 µM
15  COc1nnc(NC(=O)c2cnc(C)cc2-c2c(OC)cnc(Cl)c2C)s1    0.2 to 0.5 µM
16  COc1cnc(Cl)cc1-c1cc(C)ncc1C(=O)Nc1nnc(O[C@H]2C[C@@H]3CC[C@H]2O3)s1 (single isomer, unassigned)         ≤ 0.2 µM
17  COc1cnc(Cl)c(F)c1-c1cc(C)ncc1C(=O)Nc1nnc(O[C@H]2CC[C@](C)(O)CC2)s1 (single isomer, unassigned)         ≤ 0.2 µM
